# Tested on: h2E2 anti-cocaine mAb
# procedureSummary: Isothermal titration calorimetry
# Assay type: binding
# conditions: ITC, PBS, 20°C; calculated as ΔG = ΔH – TΔS; mean ± SD of 4 experiments
Where ΔG equals or exceeds -10 kcal/mol, the correct label is Met; where it does not, the label is Not met.

Some entries whose results are on file:
COC(=O)[C@@H]1[C@H]2CC[C@@H](C[C@@H]1O)N2C [Ecgonine Methyl Ester, ecgonine methyl ester] ... Met
CCOC(=O)[C@@H]1C2CCC(C[C@@H]1OC(=O)c1ccccc1)N2C (some centres unmarked) [Cocaethylene, cocaethylene] ... Not met
COC(=O)[C@H]1[C@@H](OC(=O)c2ccccc2)C[C@@H]2CC[C@H]1N2C [Cocaine, cocaine] ... Not met

Below: the item to evaluate.
Asked: Could you please find out whether COC(=O)[C@H]1[C@@H](OC(=O)c2ccccc2)C[C@@H]2CC[C@H]1N2 [Norcocaine, norcocaine] has ΔG that meets -10 kcal/mol or exceeds it?
Given back: Met
